# Test system: BT-549
# method-summary: Cytotoxicity against human BT549 cells after 48 hrs by neutral red assay
# Type: cell-based
# measurement-conditions: bt-549, 48 h
reported-property: Activity

Known Activity results, listed for orientation:
N[C@@H](Cc1cnc(C2CCCC2)[nH]1)C(=O)N[C@@H](Cc1c[nH]c2ccccc12)C(=O)N[C@@H](Cc1cnc(C2CCCC2)[nH]1)C(=O)NCc1ccccc1 : > 10 µg/mL
CC(C)(C)OC(=O)N[C@@H](Cc1cnc(C2CCCC2)[nH]1)C(=O)N[C@@H](Cc1c[nH]c2ccccc12)C(=O)N[C@@H](Cc1cnc(C2CCCC2)[nH]1)C(=O)NCc1ccccc1 : > 10 µg/mL

Now let's try a different one.
Lab book: Activity of CC(C)(C)c1ncc(C[C@H](NC(=O)[C@H](Cc2c[nH]c3ccccc23)NC(=O)[C@@H](N)Cc2cnc(C(C)(C)C)[nH]2)C(=O)NCc2ccccc2)[nH]1 noted as > 10 µg/mL
